System: MS2 coat protein
Assay explanation: apparent KD of MS2 coat protein; designed switch direction (-1 OFF switch, 1 ON switch): -1; higher = weaker reporter binding
Settings: Eterna round: R95; input ligand: none
Observation type: apparent KD of MS2 coat protein (nM)
API: value field is a number in nM; no unit string.

Known apparent KD of MS2 coat protein results, listed for orientation:
>  <Entry sequence>
UUGAAGAUAGGAUAUACGAGGAGAGGAGAGAGAAGGUGAGGACAUGAGGAUCACCCAUGUAGAAGGAUCAGGAG [JR_Exclu2_Sub066] (puzzle: Exclusion 2)

>  <Measured value>
84.9

$$$$
>  <Entry sequence>
GCUAGAGCAGGAUAUUCAAAACCUCACAUGAGGAUCACCCAUGUGGCCGAAAGGCCGGGAGGAGAAGGGCUCUAGC [Mat - Exclusion 5 - Eli mod - D84] (puzzle: Exclusion 5)

>  <Measured value>
17.2

$$$$
>  <Entry sequence>
AGUACUGACACGAAAGUGUUAGUACAAUAAGCUUGUGAAACAUGAGGAUCACCCAUGUCCUCAUAAGCUCGUCUUAU [salish99_TOv2_r3_017] (puzzle: Sensor v3, turn-off variant 2)

>  <Measured value>
13.8

$$$$
>  <Entry sequence>
GAUGUGGGUUUCCGGAGUAACAUGAGGAUCACCCAUGUAGAAGUUGGAGGGAUCAAGCUUUUUGGUCGUCAUAUGUG [JR_SV3TOV1_Sub052] (puzzle: Sensor v3, turn-off variant 1)

>  <Measured value>
422

$$$$
>  <Entry sequence>
CUCUUGUCAGGAUAUCAACGCCGCCCACAUGGGCAGCGAAAUGAGAAGGGACAUGAGGAUCACCCAUGUUAAAA [Retema] (puzzle: Exclusion 4)

>  <Measured value>
218

$$$$
>  <Entry sequence>
GUGUAGAUAGGAUAUACAUGAGGAUCACCCAUGUGAAUAAGAUAGAAUAAGAUAAAGUGUAGAAGGGUUAGUGU [Excluse me!!! 19 - Jieux - Exclusion 3] (puzzle: Exclusion 3)

>  <Measured value>
39.9

$$$$

Please give measured apparent KD of MS2 coat protein of the following entry: AGUAGUUGUUUCCGUUCUUACAUGAGGAUCACCCAUGUUUCUUGACGUGCACGCGAUGCUCGUCAGACUACCAGAUG [salish99_TOv1_r3_057] (puzzle: Sensor v3, turn-off variant 1) 81.7

Please list apparent KD of MS2 coat protein recorded for the sequence UAUUAGCAAGCAAGAUCCCACAUGAGGAUCACCCAUGUGCUCGUCUUAUAAGGUACUGUGACGAAAGUCACGGUACC [Sensor 3, v1 - 83] (puzzle: Sensor v3, turn-off variant 1) 38

Hello, please tell me recorded apparent KD of MS2 coat protein for this one: GUGUAACUACACGGGCUCAACAUGAGGAUCACCCAUGUCAUACACGCAAGCUUUUUGCUUGUCUUAUCUGUCCGUGU [Cegeesre] (puzzle: Sensor v3, turn-off variant 1) 11.5

Answer with the recorded apparent KD of MS2 coat protein of AGUACUAACACGAAAGUGUUAGUACUGUAGGUUUGUGUUACAUGAGGAUCACCCAUGUCCUCAUAAGCUCGUCUUGU [Mat - Sensor v3 - Turn-off var 2 - D96] (puzzle: Sensor v3, turn-off variant 2) only. 368

###

System: K4 kissing-loop RNA reporter;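 also: bound reporter read as fluorescence of individual clusters on recovered sequencing chips by microscopy, with normalized cluster intensities fitted with a binding model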
Assay explanation: apparent KD of K4 kissing-loop reporter; higher = weaker reporter binding
Settings: Eterna round: R107; input ligand: FMN 200 uM
Assign t to entries whose apparent KD of K4 kissing-loop reporter meets or exceeds 200 nM; assign f to the rest.

>  <Entry sequence>
CGAUUCAUGGCGGCCGCCACUCGCGAAGCUCCCGUUACGAUGUCCGCAACAGUGAUGUUGUUGCCGAGGACCGGGCCGAGAUCCA [theeternabot_exclusion_KL_Trp_B_31]

>  <Class label>
t

$$$$

Hi team, for GAAAGAAAGAAUGAUACCAGACACCCGAGUGAUGUUCGGAGCAGAGUGAUGUUCUUAUAAGUCCCUUGGCAGCAUAAAAGAAAAG [whbob_SS_Theo_B_sa82] , is the recorded apparent KD of K4 kissing-loop reporter at or above 200 nM? f

Threshold query (apparent KD of K4 kissing-loop reporter >= 200 nM) on CACGCCUGUUGUCUGGUAGACAGAUCAGAUACCAGACAUAGUGAUGUCCCUUGGCAGCUGAACAUCCAGUGAUGUUGGAUGCGUU [Theo A SS t11] t

Identify whether the reported apparent KD of K4 kissing-loop reporter of the following sequence is 200 nM or greater: AUAGGAGUGAUGUUCCUUAGUUUCUCCGAUACCAGUAUGGAAACAUACCCUUGGCAGCGGGAAACCGCAGAUUAGGAAACUAGUC [Theophylline A K4 6] t

Given the entry GGGCCUAUUGAUGCUGGAGUAAUUCUGGAAGGAGCGCUCAAAGGAGCAGGUAGGUCGCCAGUAUACAAGGGCAGUGAUGUUGCCC [Entimalati] , answer whether its apparent KD of K4 kissing-loop reporter meets or surpasses 200 nM. f

Decide: apparent KD of K4 kissing-loop reporter of UGGACGAUAUACGAUAAGUAUAUCUGGGAUACCAGUGACGAAAGUCACCCUUGGCAGCUCAACUGCCAGUGAUGUUGGUAGUCCA [#17 K4 Theophylline A Same State] >= 200 nM? f
